tested on: Rabbit Psoas myofibrils (skeletal myosin ATPase); test: Myofibril ATPase assay, rabbit psoas (skeletal) myofibrils; format: biochemical; settings: Y75 value (no ‡ mark); rabbit psoas myofibrils
parameter-measured: Skeletal EC25 (µM)
Numbers only, in µM.

See these solved cases before continuing.
C[C@H](NC(=O)Cc1cc2c(F)cc(F)cc2[nH]c1=O)c1ncc(C#N)cc1F	0.04
C[C@H](NC(=O)C(F)(F)c1cc2c(C#N)c(F)ccc2[nH]c1=O)c1ncc(C#N)cc1F (single isomer, unassigned)	0.08
Cc1c(CC(=O)N[C@@H](C)c2ccc(F)cc2F)c(=O)[nH]c2ccc(F)c(C#N)c12	0.01
C[C@H](NC(=O)Cc1c(C2CC2)c2cc(F)ccc2[nH]c1=O)c1ncc(C#N)cc1F	0.02
C[C@@H](NC(=O)Cc1cc2c(F)c(F)ccc2[nH]c1=O)c1ncc(C#N)cc1F	0.09

Record Skeletal EC25 for all entries; do not skip any.
1. C[C@H](NC(=O)Cc1c(C2CC2)c2cc(F)ccc2[nH]c1=O)c1ccc(C#N)cc1F
2. Cc1c(F)ccc2[nH]c(=O)c(CC(=O)N[C@@H](C)c3ncc(F)cc3F)c(C#N)c12

Result:
[0.01, 0.05]
